All values here come from the supplement of paper PMC8967900.

Tested on: COG-LL-317
testProtocol: selective drug sensitivity score (sDSS, relative to normal bone marrow) (sDSS (score)); higher = more potent and effective on the cell line relative to normal bone marrow cells;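 also: ALL cell lines in 384-well plates, five doses spanning 10,000-fold, each plate scaled between vehicle and 100 µmol/L benzalkonium chloride controls, sDSS an adapted area-under-curve metric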
details: 72 h
readoutType: selective drug sensitivity score

Lab book: selective drug sensitivity score of CC(C)c1c(C(=O)Nc2ccccc2)c(-c2ccccc2)c(-c2ccc(F)cc2)n1CC[C@@H](O)C[C@@H](O)CC(=O)O [Atorvastatin] (top concentration 10000 nM) noted as 8

Lab book: selective drug sensitivity score of Cc1ccc(C(=O)N(CCCN)[C@@H](c2oc3cc(Cl)ccc3c(=O)c2Cc2ccccc2)C(C)C)cc1 (top concentration 100 nM) noted as 1.16

Lab book: selective drug sensitivity score of CC(C)(O)CC(=O)NCCn1ccc2ncnc(Nc3ccc(Oc4cccc(C(F)(F)F)c4)c(Cl)c3)c21 [TAK-285] (top concentration 2500 nM) noted as 0

---

Test system: KASUMI-9
testProtocol: selective drug sensitivity score (sDSS, relative to normal bone marrow) (sDSS (score)); higher = more potent and effective on the cell line relative to normal bone marrow cells
details: 72 h
Please enter 1 where selective drug sensitivity score is greater than or equal to 0, and -1 where it is lower.

In: Is reported selective drug sensitivity score greater than or equal to 0 here: COc1cc2ncnc(Nc3ccc(F)c(Cl)c3)c2cc1NC(=O)/C=C/CN1CCCCC1 [Dacomitinib] (top concentration 1000 nM)
Out: 1

In: Is reported selective drug sensitivity score greater than or equal to 0 here: CNCc1ccc(-c2[nH]c3cc(F)cc4c3c2CCNC4=O)cc1 [Rucaparib] (top concentration 10000 nM)
Out: 1

In: Is reported selective drug sensitivity score greater than or equal to 0 here: Cc1c(Cn2c(C)nc3c(C(=O)O)cc(N4CCOCC4)cc32)cccc1C(F)(F)F (top concentration 10000 nM)
Out: 1

In: Is reported selective drug sensitivity score greater than or equal to 0 here: COc1cc(Nc2ncc(F)c(Nc3ccc4c(n3)N(COP(=O)(O)O)C(=O)C(C)(C)O4)n2)cc(OC)c1OC [Fostamatinib] (top concentration 2500 nM)
Out: 1

In: Is reported selective drug sensitivity score greater than or equal to 0 here: COc1cccc(-c2ccc(NC(=O)C3=C(C(=O)O)CCC3)c(F)c2)c1 [Vidofludimus] (top concentration 10000 nM)
Out: 1

In: Is reported selective drug sensitivity score greater than or equal to 0 here: Cc1cc(-c2ncc(CC(=O)Nc3ccc(-c4cnccn4)cn3)cc2C)ccn1 [NVP-LGK974] (top concentration 10000 nM)
Out: 1

In: Is reported selective drug sensitivity score greater than or equal to 0 here: Cc1cc2c(C(C)C)c(O)c(O)c(C=O)c2c(O)c1-c1c(C)cc2c(C(C)C)c(O)c(O)c(C=O)c2c1O [AT-101] (top concentration 100000 nM)
Out: 1

In: Is reported selective drug sensitivity score greater than or equal to 0 here: Nc1nc2cc(-c3ccc4ncc(C(=O)N5CCOCC5)n4c3)ccc2o1 [Serabelisib] (top concentration 10000 nM)
Out: 1

In: Is reported selective drug sensitivity score greater than or equal to 0 here: Cc1ccc(F)c(NC(=O)Nc2ccc(-c3cccc4[nH]nc(N)c34)cc2)c1 [Linifanib] (top concentration 1000 nM)
Out: -1

In: Is reported selective drug sensitivity score greater than or equal to 0 here: Cc1cccc(-c2nn3c(c2-c2ccnc4ccc(C(N)=O)cc24)CCC3)n1 [Galunisertib] (top concentration 1000 nM)
Out: 1

In: Is reported selective drug sensitivity score greater than or equal to 0 here: Nc1cc(COc2c(Cl)cc(C[C@H](N)C(=O)O)cc2Cl)c2oc(-c3ccccc3)nc2c1 [JPH203] (top concentration 5000 nM)
Out: 1

In: Is reported selective drug sensitivity score greater than or equal to 0 here: COc1ccc(S(=O)(=O)Nc2cccnc2Nc2ccc(O)cc2)cc1 [ABT-751] (top concentration 10000 nM)
Out: 1

In: Is reported selective drug sensitivity score greater than or equal to 0 here: COc1cc2/c(=N/c3ccc(Br)cc3F)nc[nH]c2cc1OCC1CCN(C)CC1 [Vandetanib] (top concentration 1000 nM)
Out: -1

In: Is reported selective drug sensitivity score greater than or equal to 0 here: C[C@H]1CNCCCN1S(=O)(=O)c1cccc2cncc(F)c12 [Ripasudil] (top concentration 10000 nM)
Out: -1

In: Is reported selective drug sensitivity score greater than or equal to 0 here: CC(C)(C)c1cnc(CSc2cnc(NC(=O)C3CCNCC3)s2)o1 [SNS-032] (top concentration 10000 nM)
Out: -1

In: Is reported selective drug sensitivity score greater than or equal to 0 here: O=C(O)C(=O)O.[NH-][C@@H]1CCCC[C@H]1[NH-].[Pt+2] [Oxaliplatin] (top concentration 100000 nM)
Out: 1

In: Is reported selective drug sensitivity score greater than or equal to 0 here: COc1cccc(OCCCN)c1-c1cc(Nc2cnc(C#N)cn2)n[nH]1 [Prexasertib] (top concentration 10000 nM)
Out: 1

In: Is reported selective drug sensitivity score greater than or equal to 0 here: CC(C)NC(=O)COc1cccc(-c2nc(Nc3ccc4[nH]ncc4c3)c3ccccc3n2)c1 [KD025] (top concentration 5000 nM)
Out: 1

In: Is reported selective drug sensitivity score greater than or equal to 0 here: O=c1[nH]c(C2CCCN2)nc2c1oc1ccc(Cl)cc12 (stereo unspecified) (top concentration 10000 nM)
Out: -1

In: Is reported selective drug sensitivity score greater than or equal to 0 here: CC(C)(C)C[C@@H]1N[C@@H](C(=O)N[C@H]2CC[C@H](O)CC2)[C@H](c2cccc(Cl)c2F)[C@]12C(=O)Nc1cc(Cl)ccc12 (top concentration 10000 nM)
Out: 1

In: Is reported selective drug sensitivity score greater than or equal to 0 here: N#Cc1ccnc(N2C(=O)CC[C@H]2C(=O)N(c2cncc(F)c2)[C@H](C(=O)NC2CC(F)(F)C2)c2ccccc2Cl)c1 [Ivosidenib] (top concentration 10000 nM)
Out: 1

In: Is reported selective drug sensitivity score greater than or equal to 0 here: Oc1ncnc2[nH]ncc12 [Allopurinol] (top concentration 10000 nM)
Out: -1

In: Is reported selective drug sensitivity score greater than or equal to 0 here: Cn1nccc1Nc1nccc(-c2ccn([C@H](CO)c3ccc(Cl)c(F)c3)c(=O)c2)n1 [Ravoxertinib] (top concentration 10000 nM)
Out: 1

---

Assign selective drug sensitivity score to each entry below.
System: COG-LL-332h
testProtocol: selective drug sensitivity score (sDSS, relative to normal bone marrow) (sDSS (score)); higher = more potent and effective on the cell line relative to normal bone marrow cells
details: 72 h
API note: the answer field is a bare number with no unit suffix.

Lab book: selective drug sensitivity score of COc1cc(Nc2ncc(F)c(Nc3ccc4c(n3)N(COP(=O)(O)O)C(=O)C(C)(C)O4)n2)cc(OC)c1OC [Fostamatinib] (top concentration 2500 nM) noted as -0.44

Lab book: selective drug sensitivity score of CC(C)c1cc(-c2n[nH]c(=O)n2-c2ccc3c(ccn3C)c2)c(O)cc1O [Ganetespib] (top concentration 1000 nM) noted as 6.64

Lab book: selective drug sensitivity score of C/C(=C\c1csc(C)n1)[C@@H]1C[C@@H]2O[C@]2(C)CCC[C@H](C)[C@H](O)[C@@H](C)C(=O)C(C)(C)[C@@H](O)CC(=O)N1 [Ixabepilone] (top concentration 1000 nM) noted as 4.08

Lab book: selective drug sensitivity score of Cc1cc2c(C(C)C)c(O)c(O)c(C=O)c2c(O)c1-c1c(C)cc2c(C(C)C)c(O)c(O)c(C=O)c2c1O [AT-101] (top concentration 100000 nM) noted as 4.08

Lab book: selective drug sensitivity score of N#Cc1ccc(COC[C@H]2O[C@@H](n3c(NCc4ccc(Cl)c(Cl)c4)nc4c(N)ncnc43)[C@H](O)[C@@H]2O)cc1 (top concentration 10000 nM) noted as 10.4

Lab book: selective drug sensitivity score of COc1cc2/c(=N/c3ccc(Br)cc3F)nc[nH]c2cc1OCC1CCN(C)CC1 [Vandetanib] (top concentration 1000 nM) noted as 0.28

Lab book: selective drug sensitivity score of CC(C)c1c(C(=O)Nc2ccccc2)c(-c2ccccc2)c(-c2ccc(F)cc2)n1CC[C@@H](O)C[C@@H](O)CC(=O)O [Atorvastatin] (top concentration 10000 nM) noted as 1.2

Lab book: selective drug sensitivity score of Cc1c(Cn2c(C)nc3c(C(=O)O)cc(N4CCOCC4)cc32)cccc1C(F)(F)F (top concentration 10000 nM) noted as 0.98

Lab book: selective drug sensitivity score of C[C@H]1CNCCCN1S(=O)(=O)c1cccc2cncc(F)c12 [Ripasudil] (top concentration 10000 nM) noted as 1.78

Lab book: selective drug sensitivity score of Cc1ccc(C(=O)Nc2ccc(Oc3cc4cnn(C)c4cc3-c3cn[nH]c3)c(F)c2)c(=O)n1-c1ccc(F)cc1 [Merestinib] (top concentration 1000 nM) noted as -0.62

Lab book: selective drug sensitivity score of CNC(=O)c1cc(Oc2ccc(NC(=O)Nc3ccc(Cl)c(C(F)(F)F)c3)cc2)ccn1 [Sorafenib] (top concentration 1000 nM) noted as 0.1

Lab book: selective drug sensitivity score of O=C(O)C(=O)O.[NH-][C@@H]1CCCC[C@H]1[NH-].[Pt+2] [Oxaliplatin] (top concentration 100000 nM) noted as 14.9
